- Test system: HS 578T breast
- experiment-summary: NCI tumour cell line growth inhibition, 48 h
recorded-metric: TGI

> print(dat)
                                   compound     test.target     result
1  CCN1C(=O)N(CC)C2C1NN=c1s/c(=C\c3ccc(F)cc3)c(=O)n12 (configuration not stated)  HS 578T breast   > 100 µM
2  O=C1c2c(Br)sc(Br)c2[C@@H](NC(=O)C(F)(F)F)C1Br (some centres not stated)  HS 578T breast  > 63.9 µM
3           Fc1cccc(F)c1C(Nc1nncs1)Nc1nncs1  HS 578T breast   > 100 µM
4  CC1c2ccccc2CCN1c1ccc(CO)c(Cl)c1 (configuration not stated)  HS 578T breast    70.7 µM
5  c1ccc(CC2COC(c3cccs3)=N2)cc1 (configuration not stated)  HS 578T breast   > 100 µM

Qu. Field request: TGI | item: CCOC(=O)Cn1nnc2ccc(Nc3nc4ccccc4nc3-c3ccccc3)cc21
Ans. > 100 µM

Qu. Field request: TGI | item: O=C(O)c1ccccc1NC(=S)c1ccccc1
Ans. > 100 µM

Qu. Field request: TGI | item: O=c1c2cc(F)ccc2sc2c(NCCCNCCO)nc3ccccc3c12
Ans. 3.74 µM

---

- System: U251 CNS
- experiment-summary: NCI tumour cell line growth inhibition, 48 h
recorded-metric: TGI

Previously resolved entries follow.
> print(dat)
                                   compound    result
1    Cc1[nH]c(-c2cc(N)ccc2Cl)c2c1C(=O)CCCC2  > 100 µM
2  OC(c1cccnc1Cl)c1nc2ccccc2c2ccnc(Cl)c12 (stereo unspecified)  > 100 µM
3               C[CH2][Hg][S]c1ccccc1C(=O)O   3.03 µM
4  CC(C)(C)NC(=O)CCC1C(C(=O)NC(C)(C)C)C2(Cl)C(Cl)=C(Cl)C1(Cl)C2(Cl)Cl (stereo unspecified)  > 100 µM
5  CC(C)(C)c1cc2nc(c1)C(C(F)(F)F)(C(F)(F)F)OB(Br)OC2(C(F)(F)F)C(F)(F)F   1.37 µM

Now for the compound whose TGI we want.
Qu. Field request: TGI | item: N[C@H](COCc1ccccc1)c1ccccc1
Ans. > 100 µM

---

Measured GI50, listed per entry.
- Test system: HCC-2998 colon
- experiment-summary: NCI tumour cell line growth inhibition, 48 h

> print(dat)
                                   compound  recorded.metric    result
1  C/C(=N\O)c1cccc(Nc2cc(-n3ccnc3)c3ccccc3n2)c1             GI50   17.3 µM
2  COc1ccc(Nc2ccc([N+](=O)[O-])cc2[N+](=O)[O-])cc1CN(CCCl)CCCl             GI50   2.15 µM
3  C[C@@H]1Cc2cc(O)ccc2[C@H]2CC[C@]3(C)/C(=C/COCCN(C)C)CC[C@H]3[C@H]12 (tested in a mixture with another compound)             GI50  0.448 µM

Qu. Field request: GI50 | item: O=C1C(OCCOc2ccccc2)=C(OCCOc2ccccc2)C(=O)c2ccccc21
Ans. 11.6 µM

---

- Test system: SF-295 CNS
- experiment-summary: NCI tumour cell line growth inhibition, 48 h; in the data active = GI50 below about 0.43 µM; inactive = the rest
The categories you may choose from are active, inactive

Some solved entries appear below for comparison.
> print(dat)
                                   compound  label.value
1  O=Nc1c(-c2c(O)[nH]c3ncccc23)[nH]c2ccccc12     inactive
2  Cc1cc(C)c(C2CNCc3cc4c(cc32)CNCC4c2c(C)cc(C)cc2C)c(C)c1 (stereo unspecified)     inactive
3            C[n+]1c2ccccc2nc2c(N)cc(N)cc21     inactive
4  CCN1C(=O)N(CC)C2C1NN=c1s/c(=C\c3ccc(F)cc3)c(=O)n12 (stereo unspecified)       active

Qu. Which outcome was assigned to COc1cc2ncc3c(nc4sccn43)c2cc1OC in this test?
Ans. inactive

Qu. Which outcome was assigned to COc1ccc2c(-c3ccnc(Nc4cccc(OC(F)(F)F)c4)n3)cnn2n1 in this test?
Ans. inactive

---

- Tested on: HCT-15 colon
- experiment-summary: NCI tumour cell line growth inhibition, 48 h; in the data active = GI50 below about 0.43 µM; inactive = the rest
The categories you may choose from are 1 = active, 0 = inactive

Qu. Which outcome was assigned to O=C1C(OCCOc2ccccc2)=C(OCCOc2ccccc2)C(=O)c2ccccc21 in this test?
Ans. 0

---

- Tested on: KM12 colon
- experiment-summary: NCI tumour cell line growth inhibition, 48 h
recorded-metric: TGI

molecule	TGI
Oc1cc(-n2cccn2)c(O)cc1-n1cccn1	> 86.5 µM
C[N+](C)(C)c1ncnc2c1ncn2C1CCCO1 (stereo not given)	> 100 µM
FC(F)(F)c1cccc(-c2nn3ncccc3c2-c2ccnc(Nc3ccc4c(c3)OCCO4)n2)c1	> 25 µM
Cc1cc(NS(=O)(=O)c2ccc(NC(=O)c3cccc4c(Nc5ccc(S(N)(=O)=O)cc5)c5ccccc5nc34)cc2)no1	> 100 µM
C[CH2][Hg][S]c1ccccc1C(=O)O	13.3 µM

Qu. Param readout= TGI; system= KM12 colon; entry= O=C1C=C(O)C(=Cc2c(O)cc(O)cc2O)C(O)=C1 ; returns value.
Ans. > 100 µM

Qu. Param readout= TGI; system= KM12 colon; entry= C[C@@H]1Cc2cc(O)ccc2[C@H]2CC[C@]3(C)/C(=C/COCCN(C)C)CC[C@H]3[C@H]12 (tested in a mixture with another compound) ; returns value.
Ans. 0.895 µM

Qu. Param readout= TGI; system= KM12 colon; entry= COc1ccc2c(-c3ccnc(Nc4cccc(OC(F)(F)F)c4)n3)cnn2n1 ; returns value.
Ans. 3.95 µM

Qu. Param readout= TGI; system= KM12 colon; entry= CN1CCc2nc3sc(C(N)=O)c(N)c3c(-c3cccs3)c2C1 ; returns value.
Ans. > 100 µM

Qu. Param readout= TGI; system= KM12 colon; entry= O=c1[nH]c(Nc2nc3ccccc3[nH]2)nc(O)c1Cc1ccccc1 ; returns value.
Ans. > 100 µM

Qu. Param readout= TGI; system= KM12 colon; entry= COC(=O)C(=O)Cc1nc2ccccc2o1 ; returns value.
Ans. > 100 µM

Qu. Param readout= TGI; system= KM12 colon; entry= CC1c2ccccc2CCN1c1ccc(CO)c(Cl)c1 (stereo not given) ; returns value.
Ans. > 72.5 µM

Qu. Param readout= TGI; system= KM12 colon; entry= CC1C=CC(OC(=O)C(C)(O)CCC(O)(C(=O)OC2CC(O)C(C(C)C)CC2(C)O)C(C)C)(C(C)C)CC1 (stereo not given) ; returns value.
Ans. 1.45 µM

Qu. Param readout= TGI; system= KM12 colon; entry= CC(C)(CCC(C)(C)N1OC1c1ccccc1)N1OC1c1ccccc1 (stereo not given) ; returns value.
Ans. > 100 µM

Qu. Param readout= TGI; system= KM12 colon; entry= Clc1ccc2oc(CCc3ccccc3)nc2c1 ; returns value.
Ans. > 100 µM

Qu. Param readout= TGI; system= KM12 colon; entry= C=C1CC[C@@H](C)[C@](C)(CCc2ccoc2)C/C=C\C=C/1C(=O)O ; returns value.
Ans. > 100 µM

Qu. Param readout= TGI; system= KM12 colon; entry= O=C(Nc1ccccc1OC(=O)c1ccccc1)c1ccccc1 ; returns value.
Ans. 10.9 µM

Qu. Param readout= TGI; system= KM12 colon; entry= CCCc1[nH]c2ccccc2c1-c1c(CCC)[nH]c2ccccc12 ; returns value.
Ans. > 61.2 µM

Qu. Param readout= TGI; system= KM12 colon; entry= CC(=O)OCC1OC(OCCCOP(=S)(OCCC#N)OCC2OC(n3ccc(N)nc3=O)C(OC(=O)c3ccccc3)C2OC(=O)c2ccccc2)C(OC(C)=O)C(OC(C)=O)C1OC(C)=O (stereo not given) ; returns value.
Ans. > 100 µM

Qu. Param readout= TGI; system= KM12 colon; entry= Cc1cc(C)c(C2CNCc3cc4c(cc32)CNCC4c2c(C)cc(C)cc2C)c(C)c1 (stereo not given) ; returns value.
Ans. 6.74 µg/mL

---

- System: HS 578T breast
- experiment-summary: NCI tumour cell line growth inhibition, 48 h
recorded-metric: TGI

Previously resolved entries follow.
> print(dat)
                                   molecule    result
1  CC(C)C[C@H](NC(=O)CCn1ccc2ccccc2c1=O)B(O)O   48.7 µM
2  CCCn1c(=O)c(N2CCN(c3ccccc3)CC2)nc2sc3ccccc3c21  > 100 µM
3  O=C1Cc2c([nH]c3ccc(C(=O)O)cc23)-c2ccccc2N1  > 100 µM

Qu. Field request: TGI | item: CN(C)CCc1c2c(nc3ccccc13)C(=O)c1cccnc1C2=O
Ans. 4.15 µM

Qu. Field request: TGI | item: COc1cc(C(=O)Nc2cc(O)c(CC=C(C)C)c(O)c2)cc2c1O[C@]1(C)CC[C@@H](O)C(C)(C)[C@H]1C2
Ans. 14 µM

Qu. Field request: TGI | item: CC(C)(C)OC(=O)NCCCCC(N)NC(=O)c1ccccc1 (stereo unspecified)
Ans. > 100 µM
